Recorded pIC50 values for a group of molecules are listed next.
- Test system: Protein Tat (Human immunodeficiency virus type 1 group M subtype B (isolate HXB2)) (UniProt P04608)
- Sequence (P04608 whole entry, looked up): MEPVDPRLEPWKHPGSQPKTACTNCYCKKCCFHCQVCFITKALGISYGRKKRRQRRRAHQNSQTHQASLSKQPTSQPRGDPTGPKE
- Procedure text: inhibitors of Tat binding to TAR RNA, dose response, counter-screen for Vif-APOBEC3G degradation inhibitor project, biochemical, fluorescence polarization, FAM-labeled TAR RNA (AID 1117361)
pIC50: −log10 of the molar value.
Parameter measured: pIC50

CCOC(=O)c1ccc(NS(=O)(=O)c2ccc3c(c2)oc(=O)n3C)cc1    6.00
CC1=CC(=Nc2c(C)n(C)n(-c3ccccc3)c2=O)C=CC1=O    4.84
CC1Cc2ccccc2N1Cc1cc(=O)n2ccsc2n1 (stereo not given)    5.00
Cc1ccc2c(c1C)NC(C(=O)O)C1CC=CC21 (stereo not given)    4.46
Cc1nc2cc(-c3ccsc3-n3c(C)ccc3C)[nH]n2c(=O)c1Cl    5.66
CC(C)(C)NC(=O)C(c1ccncc1)N(C(=O)CNC(=O)c1ccco1)c1ccc2c(c1)OCO2 (stereo not given)    4.36
CCOC(=O)c1ccc2c(c1)C1C=CCC1C(C(=O)O)N2 (stereo not given)    4.96
Cc1ccc(NC(=O)CN2C(=O)N/C(=C/c3ccco3)C2=O)cc1    4.44
Cc1cc(NC(=O)CCNS(=O)(=O)c2cc(Br)cnc2N)ccc1Br    4.03
CCOc1ccc(-n2c(Cc3cc(=O)[nH]c(=O)[nH]3)nnc2SC(C)C(=O)OC)cc1 (stereo not given)    4.03
CC1=CC(C)(C)Nc2ccc(OC(=O)CN3C(=O)c4cccc5cccc(c45)C3=O)cc21    4.82
O=C1C(Cl)=C(N2CCOCC2)C(=O)N1c1ccccc1    4.78
CCn1c2ccccc2c2cc(NC(=O)c3ccccc3[N+](=O)[O-])ccc21    4.36
O=C(O)C(Cc1ccccc1)N1C(=O)/C(=C/C=C/c2ccco2)SC1=S (stereo not given)    5.90
N=C1/C(=C\c2ccc(SCc3ccco3)o2)C(=O)N=C2SC=NN12    5.60
Clc1ccc(-c2cn3cccnc3n2)cc1Cl    4.04
COC(=O)c1ccc(COc2ccccc2/C=C(\C#N)C(=O)Nc2c(C)cc(C)cc2C)cc1    4.34
C=CCOC(=O)C1=C(C)NC(SCC(=O)Nc2ccccc2)=C(C#N)C1c1ccco1 (stereo not given)    4.24
C=CCn1c(SCC(=O)NCCCC)nc2scc(-c3ccco3)c2c1=O    4.75
Cc1ccc(Cl)cc1N1CCN(C(=O)COc2ccc3c(c2)CCC3)CC1    4.24
